Tested on: THP-1 cells
assayName: Measurement of IL-1β production, hTRF protocol (second alternative procedure), THP-1 cells
Format: cell-based, human
runConditions: Homo sapiens, THP-1, IL-1β production, human; read-out: NLRP3 hILIB EC50
reportedProperty: EC50 (nM)

A = CC[C@H](O)Cn1cc2c(N)nc3cc(-c4cc[nH]n4)ccc3c2n1
B = Nc1nc2cc(-c3cc[nH]n3)ccc2c2cn(CCNC(=O)c3ncc(C(F)(F)F)cc3F)nc12
[Q] Lab note: check whether A or B shows the higher recorded EC50. Your answer should be the label attached to the chosen record.
[A] B
(B: 1170 nM, A: 230 nM)

a = Nc1nc2cc(-c3cc[nH]n3)ccc2c2nn(CCO)cc12
b = CCNCCn1cc2c(N)nc3cc(-c4ccn[nH]4)ccc3c2n1
c = Nc1nc2cc(-n3cccn3)ccc2c2cn(CC3CCCO3)nc12 (stereo not drawn)
[Q] Please produce an ascending ranking of these compounds based on EC50. Give me the labels in the order the question wants.
[A] a, b, c

* * *

Test system: THP-1 cells
assayName: Measurement of IL-1β production, hTRF protocol (second alternative procedure), THP-1 cells
Type: cell-based, human
runConditions: Homo sapiens, THP-1, IL-1β production, human; read-out: NLRP3 hILIB EC50
pEC50: −log10 of the molar value.
reportedProperty: pEC50

| compound | targetEntity | pEC50 |
| --- | --- | --- |
| COCCCCn1ncc2c(N)nc3cc(-c4cc[nH]n4)ccc3c21 | THP-1 cells | 6.52 |
| Nc1nc2cc(-c3cc[nH]n3)ccc2c2nn(CC(O)CO)cc12 (centres unmarked) | THP-1 cells | 6.25 |
| CCOCCn1ncc2c(N)nc3cc(-c4cc[nH]n4)ccc3c21 | THP-1 cells | 6.35 |

A = Nc1nc2cc(-c3ccn[nH]3)ccc2c2cn(CC(F)F)nc12
B = NC(=O)CCn1cc2c(n1)c(N)nc1cc(-c3ccn[nH]3)ccc12
[Q] Given A and given B , which shows the smaller recorded pEC50? Your answer should be the label attached to the chosen record.
[A] B
(B: 6.23, A: 7.05)

* * *

System: THP-1 cells
assayName: Measurement of IL-1β production, hTRF protocol (second alternative procedure), THP-1 cells
Type: cell-based, human
runConditions: Homo sapiens, THP-1, IL-1β production, human; read-out: NLRP3 hILIB EC50
reportedProperty: EC50 (nM)

# example entries with known answers
| molecule | reportedProperty | unitLabel | quantitativeResult |
| --- | --- | --- | --- |
| COCC(O)Cn1ncc2c(N)nc3cc(-c4cc[nH]n4)ccc3c21 (stereo not drawn) | EC50 | nM | 1260 |
| Nc1nc2cc(-n3cccn3)ccc2c2cn(C[C@H]3CCC(=O)N3)nc12 | EC50 | nM | 11300 |
| NC(=O)Cn1cc2c(n1)c(N)nc1cc(-c3ccn[nH]3)ccc12 | EC50 | nM | 7190 |

I = Cc1nc(C(=O)NCCn2cc3c(n2)c(N)nc2cc(-n4cccn4)ccc23)co1
II = N#Cc1ccc(C(=O)NCCn2cc3c(n2)c(N)nc2cc(-c4cc[nH]n4)ccc23)nc1
[Q] Given I and given II , which shows the smaller recorded EC50? Your answer should be the label attached to the chosen record.
[A] I

a = Nc1nc2cc(-c3cc[nH]n3)ccc2c2cn(CCCc3cccnc3)nc12
b = Nc1nc2cc(-c3cc[nH]n3)ccc2c2cn(CCc3c[nH]cn3)nc12
[Q] Given a and given b , which shows the smaller recorded EC50? Your answer should be the label attached to the chosen record.
[A] b
(b: 290 nM, a: 980 nM)

A = Nc1nc2cc(-c3cc[nH]n3)ccc2c2nn(CC3(O)CCOCC3)cc12
B = CCCn1ncc2c(N)nc3cc(-c4cc[nH]n4)ccc3c21
[Q] Given A and given B , which shows the smaller recorded EC50? Your answer should be the label attached to the chosen record.
[A] B
